System: S. aureus SG511
assay method text: Broth microdilution MIC, S. aureus
Type: cell-based, Staphylococcus aureus
test context: 37° C., 18-20 h, average of three measurements
# In vitro activity (MIC) S. aureus SG511 annotations
Entry rule: numbers only, all in µM.

# molecule, In vitro activity (MIC) S. aureus SG511 (µM)
records = [
    ("C[C@H]1COC2(CCN(C3=NC(=O)c4cc(C(F)(F)F)cc([N+](=O)[O-])c4S3(=O)=O)CC2)O1", 0.2),
]

## Task Given the molecule O=C(O)c1cn(C2CC2)c2cc(N3CCNCC3)c(F)cc2c1=O [Ciprofloxacin, reference compound] , write its reported In vitro activity (MIC) S. aureus SG511.
## Result 0.32

## Task For the molecule C[C@H]1COC2(CCN(c3nc(=O)c4cc(C(F)(F)F)cc([N+](=O)[O-])c4[s+]3[O-])CC2)O1 (stereo partly shown) , give its reported In vitro activity (MIC) S. aureus SG511.
## Result 12.5

---

Parameter In vitro activity (MIC) M. aurum: see the listing below.
System: M. aurum (SB66)
assay method text: Broth microdilution MIC, M. aurum
Assay type: cell-based, Mycobacterium aurum
test context: 37° C., 18-20 h, average of three measurements, in µM

Recorded In vitro activity (MIC) M. aurum, per entry:
# compound, In vitro activity (MIC) M. aurum
measured = [
    ("O=C(O)c1cn(C2CC2)c2cc(N3CCNCC3)c(F)cc2c1=O [Ciprofloxacin, reference compound]", 0.020),
    ("C[C@H]1COC2(CCN(C3=NC(=O)c4cc(C(F)(F)F)cc([N+](=O)[O-])c4S3(=O)=O)CC2)O1", ">200"),
    ("C[C@H]1COC2(CCN(c3nc(=O)c4cc(C(F)(F)F)cc([N+](=O)[O-])c4[s+]3[O-])CC2)O1 (stereo partly shown)", "3.13-12.5"),
]

Here is the next item to consider.
## Task Supply measured In vitro activity (MIC) M. aurum of C[C@H]1COC2(CCN(c3nc(=O)c4cc(C(F)(F)F)cc([N+](=O)[O-])c4s3)CC2)O1 [Compound 1, BTZ043, reference compound] in your reply.
## Result >200

---

Tested on: Mtb H37Rv (ATCC#27294)
assay method text: Microplate Alamar Blue assay (MABA), replicating TB
Format: cell-based, Mycobacterium tuberculosis
test context: Mycobacterium tuberculosis; H37Rv, glycerol-alanine-salts medium; reduction in fluorescence of ≧90%; read-out: MABA:MIC GAS
# maps each entry to its MIC
Provide the reading as a plain figure in µM.

## Task // Input: `NNC(=O)c1ccncc1` . Output its MIC only.
## Result 0.03

## Task Annotate the molecule `CO[C@H]1/C=C/O[C@@]2(C)Oc3c(C)c(O)c4c(O)c(c(/C=N/N5CCN(C)CC5)c(O)c4c3C2=O)NC(=O)/C(C)=C\C=C\[C@H](C)[C@H](O)[C@@H](C)[C@@H](O)[C@@H](C)[C@H](OC(C)=O)[C@@H]1C` with its measured MIC.
## Result 0.04

## Task Complete the entry with MIC for `C[C@H]1COC2(CCN(C3=NC(=O)c4cc(C(F)(F)F)cc([N+](=O)[O-])c4S3(=O)=O)CC2)O1`
## Result 0.75
